Tested on: woolly cupgrass (Eriochloa villosa)
Experiment: Test C preemergence
Format: in vivo
Details: preemergence, Rate 500 g/ha, visual evaluation after 12 to 14 days
MEASUREMENT LABEL: Plant response rating (0 to 100), Cupgrass, Woolly
Please reply with the value in numeric form only.

Consider the worked cases shown below.
| COMPOUND | VALUE REPORTED |
| --- | --- |
| COc1cc(N2CCC(n3ccc(C(C)C)n3)C2=O)ccc1Cl (stereo not drawn) [Compound 120] | 100 |
| COc1cc(N2CCC(n3ccc(C(C)C)n3)C2=O)ccc1Br (stereo not drawn) [Compound 140] | 100 |
| CCC(CC)c1ccn(C2CCN(c3ccc(F)c(C(F)(F)F)c3)C2=O)n1 (stereo not drawn) [Compound 144] | 100 |
| CCCC(C)c1ccn(C2OCN(c3cccc(OC(F)(F)F)c3)C2=O)n1 (stereo not drawn) [Compound 91] | 100 |
| CC(C)(C)c1ccn(C2CCN(c3cccc(SC(F)(F)F)c3)C2=O)n1 (stereo not drawn) [Compound 93] | 80 |

Req: # query: Plant response rating (0 to 100), Cupgrass, Woolly of entry CCC(CC)c1ccn(C2CCN(c3cccc(OC(C)C)c3)C2=O)n1 (stereo not drawn) [Compound 84]
Resp: 100

Req: Item under review: CCCC(C)c1ccn(C2CCN(c3cccc(OCC)c3)C2=O)n1 (stereo not drawn) [Compound 129] . Reported Plant response rating (0 to 100), Cupgrass, Woolly?
Resp: 100

Req: Find the recorded Plant response rating (0 to 100), Cupgrass, Woolly belonging to CC1(c2ccn(C3SCN(c4cccc(C(F)(F)F)c4)C3=O)n2)CC1 (stereo not drawn) [Compound 64] and report it.
Resp: 100

Req: Query: Plant response rating (0 to 100), Cupgrass, Woolly; subject: CCCC(C)c1ccn(C2SCN(c3cccc(C(F)(F)F)c3)C2=O)n1 (stereo not drawn) [Compound 92]
Resp: 50

----------
Test system: morning glory (Ipomoea hederacea)
Experiment: Test B postemergence
Format: in vivo
Details: Rate 125 g/ha, scale 0 (no effect) to 100 (complete control), 13 to 15 days
Procedure: […] At the same time, plants selected from these crop and weed species and also blackgrass (Alopecurus myosuroides), wheat (Triticum aestivum) and wild oat (Avena fatua) were treated with postemergence applications of test chemicals formulated in the same manner. […] Treated plants and controls were maintained in a greenhouse for 13 to 15 days, after which time all species were compared to controls and visually evaluated. […]
MEASUREMENT LABEL: Plant response rating, Morningglory

Recorded results for 4 compounds are shown here.
| COMPOUND | MEASUREMENT LABEL | VALUE REPORTED |
| --- | --- | --- |
| CCC(CC)c1ccn(C2SCN(c3cccc(C(F)(F)F)c3)C2=O)n1 (centres unmarked) | Plant response rating, Morningglory | 70 |
| CC1(c2ccn(C3OCN(c4cccc(OC(F)(F)F)c4)C3=O)n2)CC1 (centres unmarked) | Plant response rating, Morningglory | 0 |
| CCC(C)Oc1ccn(C2CCN(c3cccc(C(F)(F)F)c3)C2=O)n1 (centres unmarked) | Plant response rating, Morningglory | 0 |
| Cc1ccc(N2CCC(n3ccc(C(C)(C)C)n3)C2=O)cc1Cl (centres unmarked) | Plant response rating, Morningglory | 0 |

Okay, now this compound:
Req: Give Plant response rating, Morningglory (morning glory (Ipomoea hederacea)) of the following compound: CCC(C)c1ccn(C2CCN(c3ccc(C)c(OC)c3)C2=O)n1 (centres unmarked)
Resp: 40

----------
System: soybean (Glycine max)
Experiment: Test C preemergence
Assay type: in vivo
Conditions: preemergence; Rate 125 g/ha; scale 0 to 100, 0 no effect, 100 complete control
compounds and their reported Plant response rating, Soybean
Just the number, please, no unit attached.

| COMPOUND | MEASUREMENT LABEL | VALUE REPORTED |
| --- | --- | --- |
| CC(C)Oc1cccc(N2CCC(n3ccc(C(C)(C)C)n3)C2=O)c1 (stereo not drawn) | Plant response rating, Soybean | 10 |

Req: Can you share its Plant response rating, Soybean? I mean this compound: CC1(c2ccn(C3SCN(c4cccc(OC(F)(F)F)c4)C3=O)n2)CC1 (stereo not drawn)
Resp: 0

Req: Recorded Plant response rating, Soybean for CC(C)c1ccn(C2OCN(c3cccc(C(F)(F)F)c3)C2=O)n1 (stereo not drawn) , please?
Resp: 40

Req: Value lookup for Plant response rating, Soybean; key = O=C1C(n2ccc(C3CCCCC3)n2)SCN1c1cccc(OC(F)(F)F)c1 (stereo not drawn)
Resp: 0

Req: // query Plant response rating, Soybean value for entry CCC(C)c1ccn(C2SCN(c3cccc(OC(F)(F)F)c3)C2=O)n1 (stereo not drawn)
Resp: 20

Req: Please look up its Plant response rating, Soybean: CCC(CC)c1ccn(C2SCN(c3cccc(C(F)(F)F)c3)C2=O)n1 (stereo not drawn)
Resp: 30

Req: Name the recorded Plant response rating, Soybean for CC(C)(C)c1ccn(C2CCN(c3cccc(C(F)(F)F)c3)C2=S)n1 (stereo not drawn) .
Resp: 40

Req: Return reported Plant response rating, Soybean; argument: CC1(c2ccn(C3OCN(c4cccc(C(F)(F)F)c4)C3=O)n2)CC1 (stereo not drawn)
Resp: 0

Req: Given the compound CC(C)(C)c1ccn(C2CCN(c3ccc(Cl)c(Br)c3)C2=O)n1 (stereo not drawn) , what is its reported Plant response rating, Soybean?
Resp: 0

----------
Recorded Plant response rating (0 to 100), Pigweed, one value per entry.
Test system: pigweed (Amaranthus retroflexus)
Assay: Test C preemergence
Format: in vivo
Settings: preemergence, Rate 500 g/ha, visual evaluation after 12 to 14 days
A bare number is all that is needed in reply.

Examples with their reported Plant response rating (0 to 100), Pigweed follow.
| COMPOUND | VALUE REPORTED |
| --- | --- |
| CC1(c2ccn(C3OCN(c4cccc(C(F)(F)F)c4)C3=O)n2)CC1 (stereo not shown) [Compound 62] | 100 |
| CCC(CC)c1ccn(C2CCN(c3ccc(F)c(C(F)(F)F)c3)C2=O)n1 (stereo not shown) [Compound 144] | 100 |
| CCC(C)c1ccn(C2CCN(c3ccc(F)c(C(F)(F)F)c3)C2=O)n1 (stereo not shown) [Compound 145] | 100 |
| CC(C)(C)c1ccn(C2CCN(c3cccc(OC(F)F)c3)C2=O)n1 (stereo not shown) [Compound 76] | 100 |
| CCCC(C)c1ccn(C2OCN(c3cccc(OC(F)F)c3)C2=O)n1 (stereo not shown) [Compound 132] | 100 |

Req: Param item = CC1(c2ccn(C3SCN(c4cccc(OC(F)(F)F)c4)C3=O)n2)CC1 (stereo not shown) [Compound 63] ; retrieve measured Plant response rating (0 to 100), Pigweed.
Resp: 100

----------
System: crabgrass (Digitaria sanguinalis)
Test: Test B preemergence
Assay type: in vivo
Settings: preemergence; Rate 125 g/ha; scale 0 to 100, 0 no effect, 100 complete control
Item-by-item account of Plant response rating, Crabgrass
API doc: respond with a numeric literal and nothing else, no unit.

| MOLECULE | MEASURED TARGET | MEASUREMENT LABEL | VALUE REPORTED |
| --- | --- | --- | --- |
| CC(C)(C)c1ccn(C2CCN(c3cccc(C(F)(F)F)c3)C2=O)n1 (stereo not drawn) [Example 3] | crabgrass (Digitaria sanguinalis) | Plant response rating, Crabgrass | 70 |
| CC(C)c1ccn(C2OCN(c3cccc(C(F)(F)F)c3)C2=O)n1 (stereo not drawn) [Compound 27] | crabgrass (Digitaria sanguinalis) | Plant response rating, Crabgrass | 0 |
| O=C1C(n2cc(Cl)c(C3CC3)n2)CCN1c1cccc(C(F)(F)F)c1 (stereo not drawn) [Compound 12] | crabgrass (Digitaria sanguinalis) | Plant response rating, Crabgrass | 0 |
| CCC(C)c1ccn(C2OCN(c3cccc(C(F)(F)F)c3)C2=O)n1 (stereo not drawn) [Compound 24] | crabgrass (Digitaria sanguinalis) | Plant response rating, Crabgrass | 100 |
| O=C1C(n2ccc(C3CC3)n2)SCN1c1cccc(C(F)(F)F)c1 (stereo not drawn) [Compound 26] | crabgrass (Digitaria sanguinalis) | Plant response rating, Crabgrass | 100 |

Req: Please tell me: Plant response rating, Crabgrass of CC(C)(C)c1ccn(C2CCN(c3cccc(C(F)(F)F)c3)C2=S)n1 (stereo not drawn) [Compound 22] , system crabgrass (Digitaria sanguinalis)?
Resp: 0

----------
System: barnyardgrass (Echinochloa crus-galli)
Assay: Test B postemergence
Assay type: in vivo
Conditions: Rate 500 g/ha, scale 0 to 100, 0 is no effect, 100 is complete control, 13 to 15 days
Measured Plant response rating, Barnyardgrass of individual entries
Please give only the number in your answer, with no unit.

Before answering, review these 2 worked examples.
| COMPOUND | MEASURED TARGET | Plant response rating, Barnyardgrass |
| --- | --- | --- |
| CCC(CC)c1ccn(C2OCN(c3cccc(OC(F)F)c3)C2=O)n1 (stereo not drawn) | barnyardgrass (Echinochloa crus-galli) | 100 |
| CCCC(C)c1ccn(C2SCN(c3cccc(OC(F)(F)F)c3)C2=O)n1 (stereo not drawn) | barnyardgrass (Echinochloa crus-galli) | 80 |

Pending compound:
Req: Recorded Plant response rating, Barnyardgrass of CC(C)(C)c1ccn(C2SCN(c3cccc(OC(F)F)c3)C2=O)n1 (stereo not drawn) , please.
Resp: 100
